- TARGET ENTITY: NR2F6 (Homo sapiens, UniProt P10588)
- Construct: expressed in transfected cells; also transient transfection
- MEASUREMENT NOTES: NR2F6 agonist screening, Firefly signal cmpd/DMSO
- Type: cell-based
- CONDITION: repeat 1
OBSERVATION TYPE: Firefly, cmpd/DMSO repeat 1
Just the number, please, no unit after it.

Form: compound = COc1ccc(NC(=O)c2ccc3nc(-c4ccccc4)cn3c2)c(OC)c1 [Compound P1] ; Firefly, cmpd/DMSO repeat 1 = 4.0

Form: compound = Cc1cc(C)nc(Sc2nnc(-c3ccc(C)c(S(=O)(=O)N4CCOCC4)c3)c3ccccc23)n1 [Compound F1] ; Firefly, cmpd/DMSO repeat 1 = 5.6

Form: compound = Cc1cc(C)n2nc(CNS(=O)(=O)c3c(F)c(F)c(F)c(F)c3F)nc2n1 [Compound E21] ; Firefly, cmpd/DMSO repeat 1 = 9.5

Form: compound = CCOC(=O)c1cnc2c(C)cc(C)cc2c1NCCCN(C)C [Compound D28] ; Firefly, cmpd/DMSO repeat 1 = 14.1

---

- TARGET ENTITY: NR2F6 (Homo sapiens, UniProt P10588)
- Construct: expressed in transfected cells; also transient transfection
- MEASUREMENT NOTES: NR2F6 agonist screening, Firefly signal cmpd/DMSO
- Assay type: cell-based
- CONDITION: Table 12; ratio Firefly/Renilla, NR2F6 stable clone F4
OBSERVATION TYPE: Firefly/Renilla (NR2F6 stable, clone F4)
Just the number, please, no unit after it.

Form: compound = `COc1ccc(S(=O)(=O)c2cc3cc(F)cc(F)c3oc2=O)cc1` ; Firefly/Renilla (NR2F6 stable, clone F4) = 2.0

Form: compound = `CCOc1cccc2cc(S(=O)(=O)c3cccc(Cl)c3)c(=O)oc12` ; Firefly/Renilla (NR2F6 stable, clone F4) = 2.3

Form: compound = `N#Cc1cccc(S(=O)(=O)c2cc3cc(Cl)ccc3oc2=O)c1` ; Firefly/Renilla (NR2F6 stable, clone F4) = 2.1

Form: compound = `Cc1ccc(S(=O)(=O)c2cc3cc(C(=O)NCCc4ccccc4)ccc3oc2=O)cc1` ; Firefly/Renilla (NR2F6 stable, clone F4) = 2.0

Form: compound = `Cc1cccc(NC(=O)c2ccc3oc(=O)c(S(=O)(=O)c4ccc(Cl)cc4)cc3c2)c1C` ; Firefly/Renilla (NR2F6 stable, clone F4) = 1.7

Form: compound = `O=c1oc2ccccc2cc1S(=O)(=O)c1ccccc1F` ; Firefly/Renilla (NR2F6 stable, clone F4) = 2.6

Form: compound = `CCOc1cccc2cc(S(=O)(=O)c3ccc(OC)c(OC)c3)c(=O)oc12` ; Firefly/Renilla (NR2F6 stable, clone F4) = 2.8

Form: compound = `Cc1ccc2oc(=O)c(S(=O)(=O)c3cccc(C#N)c3)cc2c1` ; Firefly/Renilla (NR2F6 stable, clone F4) = 4.0

Form: compound = `COC(=O)c1ccc2oc(=O)c(S(=O)(=O)c3ccccc3)cc2c1` ; Firefly/Renilla (NR2F6 stable, clone F4) = 1.8

Form: compound = `Cc1ccccc1NC(=O)c1ccc2oc(=O)c(S(=O)(=O)c3ccc(F)cc3)cc2c1` ; Firefly/Renilla (NR2F6 stable, clone F4) = 2.4

Form: compound = `CCOc1cccc2cc(S(=O)(=O)c3cc(F)cc(F)c3)c(=O)oc12` ; Firefly/Renilla (NR2F6 stable, clone F4) = 2.5

Form: compound = `Cc1cc(S(=O)(=O)c2cc3ccccc3oc2=O)ccc1F` ; Firefly/Renilla (NR2F6 stable, clone F4) = 3.3

Form: compound = `Cc1ccc(S(=O)(=O)c2cc3cc(Cl)ccc3oc2=O)cc1` ; Firefly/Renilla (NR2F6 stable, clone F4) = 1.7

Form: compound = `COc1ccc(S(=O)(=O)c2cc3ccccc3oc2=O)cc1` ; Firefly/Renilla (NR2F6 stable, clone F4) = 2.4

Form: compound = `COc1ccc(NC(=O)c2ccc3oc(=O)c(S(=O)(=O)c4ccccc4)cc3c2)cc1` ; Firefly/Renilla (NR2F6 stable, clone F4) = 2.3

Form: compound = `COC(=O)c1ccc2oc(=O)c(S(=O)(=O)c3ccc(C)cc3)cc2c1` ; Firefly/Renilla (NR2F6 stable, clone F4) = 1.8

Form: compound = `CCOc1cccc2cc(S(=O)(=O)c3ccccc3F)c(=O)oc12` ; Firefly/Renilla (NR2F6 stable, clone F4) = 2.4

Form: compound = `Cc1ccc(NC(=O)c2ccc3oc(=O)c(S(=O)(=O)c4ccccc4)cc3c2)c(C)c1` ; Firefly/Renilla (NR2F6 stable, clone F4) = 2.1

---

Kindly state Firefly, cmpd/DMSO repeat 2 for each of the entries shown.
- TARGET ENTITY: NR2F6 (Homo sapiens)
- Construct: expressed in transfected cells; also transient transfection
- Sequence (P10588 1-404): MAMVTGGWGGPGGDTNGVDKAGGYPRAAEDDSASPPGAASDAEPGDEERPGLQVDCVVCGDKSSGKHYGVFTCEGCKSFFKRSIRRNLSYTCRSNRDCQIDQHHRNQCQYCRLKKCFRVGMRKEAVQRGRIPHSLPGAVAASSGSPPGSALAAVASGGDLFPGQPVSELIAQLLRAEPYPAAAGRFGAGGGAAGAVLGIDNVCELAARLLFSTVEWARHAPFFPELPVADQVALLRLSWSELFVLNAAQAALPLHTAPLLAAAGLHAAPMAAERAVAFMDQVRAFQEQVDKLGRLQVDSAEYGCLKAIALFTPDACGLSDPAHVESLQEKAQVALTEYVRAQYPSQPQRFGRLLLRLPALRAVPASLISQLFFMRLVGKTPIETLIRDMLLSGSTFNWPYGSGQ
- MEASUREMENT NOTES: NR2F6 agonist screening, Firefly signal cmpd/DMSO
- Type: cell-based
- CONDITION: repeat 2
Just the number, please, no unit after it.

Form: compound = `Cc1cc(C)nc(Sc2nnc(-c3ccc(C)c(S(=O)(=O)N4CCOCC4)c3)c3ccccc23)n1` ; Firefly, cmpd/DMSO repeat 2 = 4.6

Form: compound = COc1ccc(NC(=O)c2ccc3nc(-c4ccccc4)cn3c2)c(OC)c1 [Compound P1] ; Firefly, cmpd/DMSO repeat 2 = 3.0

Form: compound = `CCOC(=O)c1cnc2c(C)cc(C)cc2c1NCCCN(C)C` ; Firefly, cmpd/DMSO repeat 2 = 11.7

Form: compound = `Cc1cc(C)n2nc(CNS(=O)(=O)c3c(F)c(F)c(F)c(F)c3F)nc2n1` ; Firefly, cmpd/DMSO repeat 2 = 5.6

---

Kindly state Firefly, F4, 10% FBS, cmpd/DMSO (mean) for each of the entries shown.
- TARGET ENTITY: NR2F6 (Homo sapiens)
- Construct: expressed in transfected cells; also transient transfection
- MEASUREMENT NOTES: NR2F6 agonist screening, Firefly signal cmpd/DMSO
- Assay type: cell-based
- CONDITION: F4; 10% FBS; 40 uM

Form: compound = `O=S1(=O)C[C@H](N2CCCC2)[C@@H](S(=O)(=O)c2ccc(Cl)cc2)C1` ; Firefly, F4, 10% FBS, cmpd/DMSO (mean) = 0.5

Form: compound = `C[C@@H]1C[C@H](C)CN([C@H]2CS(=O)(=O)C[C@@H]2S(=O)(=O)c2cccs2)C1` ; Firefly, F4, 10% FBS, cmpd/DMSO (mean) = 3.1

Form: compound = `CCCN[C@H]1CS(=O)(=O)C[C@@H]1S(=O)(=O)c1ccc(Cl)cc1` ; Firefly, F4, 10% FBS, cmpd/DMSO (mean) = 2.9

Form: compound = `COc1ccc(CCN[C@H]2CS(=O)(=O)C[C@@H]2S(=O)(=O)c2ccc(Cl)cc2)cc1OC` ; Firefly, F4, 10% FBS, cmpd/DMSO (mean) = 4.1

Form: compound = `COCCN[C@H]1CS(=O)(=O)C[C@@H]1S(=O)(=O)c1ccc(Cl)cc1` ; Firefly, F4, 10% FBS, cmpd/DMSO (mean) = 12

Form: compound = `C[C@@H]1C[C@H](C)CN([C@H]2CS(=O)(=O)C[C@@H]2S(=O)(=O)c2ccccc2)C1` ; Firefly, F4, 10% FBS, cmpd/DMSO (mean) = 5.0

Form: compound = CCC(C)N[C@H]1CS(=O)(=O)C[C@@H]1S(=O)(=O)c1ccc(Cl)cc1 (stereo partly shown) ; Firefly, F4, 10% FBS, cmpd/DMSO (mean) = 3.4

Form: compound = `O=S1(=O)C[C@H](NCCc2cccs2)[C@@H](S(=O)(=O)c2ccc(Cl)cc2)C1` ; Firefly, F4, 10% FBS, cmpd/DMSO (mean) = 3.3

Form: compound = `CC(C)CN[C@H]1CS(=O)(=O)C[C@@H]1S(=O)(=O)c1ccc(Cl)cc1` ; Firefly, F4, 10% FBS, cmpd/DMSO (mean) = 1.7

Form: compound = `CCCCN[C@H]1CS(=O)(=O)C[C@@H]1S(=O)(=O)c1ccc(Cl)cc1` ; Firefly, F4, 10% FBS, cmpd/DMSO (mean) = 1.6

Form: compound = `O=S1(=O)C[C@H](NCc2ccco2)[C@@H](S(=O)(=O)c2cccs2)C1` ; Firefly, F4, 10% FBS, cmpd/DMSO (mean) = 3.7

Form: compound = `COCCCN[C@H]1CS(=O)(=O)C[C@@H]1S(=O)(=O)c1ccc(Cl)cc1` ; Firefly, F4, 10% FBS, cmpd/DMSO (mean) = 8.3

Form: compound = `CC(C)OCCCN[C@H]1CS(=O)(=O)C[C@@H]1S(=O)(=O)c1ccc(Cl)cc1` ; Firefly, F4, 10% FBS, cmpd/DMSO (mean) = 12

Form: compound = `O=S1(=O)C[C@H](NC2CCCCC2)[C@@H](S(=O)(=O)c2ccccc2)C1` ; Firefly, F4, 10% FBS, cmpd/DMSO (mean) = 3.6

Form: compound = `CC(=O)N1CCN([C@H]2CS(=O)(=O)C[C@@H]2S(=O)(=O)c2ccc(F)c(C)c2)CC1` ; Firefly, F4, 10% FBS, cmpd/DMSO (mean) = 0.8

Form: compound = `O=S1(=O)C[C@H](N2CCCCC2)[C@@H](S(=O)(=O)c2ccc(Cl)cc2)C1` ; Firefly, F4, 10% FBS, cmpd/DMSO (mean) = 0.8

Form: compound = O=S1(=O)C[C@H](NCC2CCCO2)[C@@H](S(=O)(=O)c2cccs2)C1 (stereo partly shown) ; Firefly, F4, 10% FBS, cmpd/DMSO (mean) = 4.6

Form: compound = `O=S1(=O)C[C@H](NC2CCCCC2)[C@@H](S(=O)(=O)c2ccc(Cl)cc2)C1` ; Firefly, F4, 10% FBS, cmpd/DMSO (mean) = 4.5

Form: compound = `O=S1(=O)C[C@H](NCCCc2ccccc2)[C@@H](S(=O)(=O)c2ccc(Cl)cc2)C1` ; Firefly, F4, 10% FBS, cmpd/DMSO (mean) = 13

Form: compound = `CC(=O)Nc1ccc(S(=O)(=O)[C@H]2CS(=O)(=O)C[C@@H]2NC2CC2)cc1` ; Firefly, F4, 10% FBS, cmpd/DMSO (mean) = 1.0

Form: compound = `O=S1(=O)C[C@H](NC2CCCC2)[C@@H](S(=O)(=O)c2ccc(F)cc2)C1` ; Firefly, F4, 10% FBS, cmpd/DMSO (mean) = 3.2

Form: compound = `COCCN[C@H]1CS(=O)(=O)C[C@@H]1S(=O)(=O)c1cccs1` ; Firefly, F4, 10% FBS, cmpd/DMSO (mean) = 6.1

Form: compound = `O=S1(=O)C[C@H](NCc2ccncc2)[C@@H](S(=O)(=O)c2cccs2)C1` ; Firefly, F4, 10% FBS, cmpd/DMSO (mean) = 2.2

Form: compound = CCC(C)N[C@H]1CS(=O)(=O)C[C@@H]1S(=O)(=O)c1ccc(C)cc1 (stereo partly shown) ; Firefly, F4, 10% FBS, cmpd/DMSO (mean) = 5.8

Form: compound = `CC1CCN([C@H]2CS(=O)(=O)C[C@@H]2S(=O)(=O)c2cccs2)CC1` ; Firefly, F4, 10% FBS, cmpd/DMSO (mean) = 1.7

Form: compound = Cc1cc(S(=O)(=O)[C@H]2CS(=O)(=O)C[C@@H]2NCC2CCCO2)ccc1F (stereo partly shown) ; Firefly, F4, 10% FBS, cmpd/DMSO (mean) = 1.3

Form: compound = `CC(C)N[C@H]1CS(=O)(=O)C[C@@H]1S(=O)(=O)c1ccc(Cl)cc1` ; Firefly, F4, 10% FBS, cmpd/DMSO (mean) = 15

Form: compound = `O=S1(=O)C[C@H](NC2CCCCCC2)[C@@H](S(=O)(=O)c2ccc(Cl)cc2)C1` ; Firefly, F4, 10% FBS, cmpd/DMSO (mean) = 5.0

Form: compound = `CC(C)CCN[C@H]1CS(=O)(=O)C[C@@H]1S(=O)(=O)c1cccs1` ; Firefly, F4, 10% FBS, cmpd/DMSO (mean) = 5.9

Form: compound = `O=S1(=O)C[C@H](N2CCCCC2)[C@@H](S(=O)(=O)c2cccs2)C1` ; Firefly, F4, 10% FBS, cmpd/DMSO (mean) = 3.6

Form: compound = `CCCCN(C)[C@H]1CS(=O)(=O)C[C@@H]1S(=O)(=O)c1ccc(Cl)cc1` ; Firefly, F4, 10% FBS, cmpd/DMSO (mean) = 5.4
